target: Δ^5 -lipoxygenase from rat basophilic leukemia (RBL-1) cells (Rattus norvegicus); construct: endogenous in cells; 113,000×g supernatant (cytosolic fraction); assay: In vitro test for Δ^5 -lipoxygenase inhibitors (5-LO), RBL-1 cell enzyme, 5-HETE radioimmunoassay; settings: RBL-1 5-LO; 10 min preincubation; 8.25 μM arachidonic acid, 10 min at 37° C.; 5-HETE formation; read-out: 5-LO IC-50
Sequence (P12527 whole entry, stated change not applied): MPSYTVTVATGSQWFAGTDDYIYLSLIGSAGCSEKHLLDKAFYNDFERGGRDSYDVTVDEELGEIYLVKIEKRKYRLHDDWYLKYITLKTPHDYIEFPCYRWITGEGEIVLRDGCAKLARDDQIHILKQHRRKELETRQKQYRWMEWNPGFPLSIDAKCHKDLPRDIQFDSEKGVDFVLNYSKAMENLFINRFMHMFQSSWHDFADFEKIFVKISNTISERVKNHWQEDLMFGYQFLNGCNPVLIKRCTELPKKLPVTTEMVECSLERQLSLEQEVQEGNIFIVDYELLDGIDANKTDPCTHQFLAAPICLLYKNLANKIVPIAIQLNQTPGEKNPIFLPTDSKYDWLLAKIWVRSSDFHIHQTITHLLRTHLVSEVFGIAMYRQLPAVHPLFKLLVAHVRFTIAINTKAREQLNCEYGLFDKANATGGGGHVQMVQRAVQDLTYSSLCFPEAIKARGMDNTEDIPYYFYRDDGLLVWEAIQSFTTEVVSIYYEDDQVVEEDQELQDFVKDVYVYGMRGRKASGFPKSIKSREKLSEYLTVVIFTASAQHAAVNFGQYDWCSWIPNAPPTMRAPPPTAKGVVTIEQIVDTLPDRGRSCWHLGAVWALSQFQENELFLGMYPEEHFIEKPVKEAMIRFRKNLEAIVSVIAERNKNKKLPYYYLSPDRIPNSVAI
IC50 strictly less than 80 nM = satisfied. Otherwise not satisfied.

| compound | class name |
| --- | --- |
| Cc1c(C)c2c(c(C)c1O)CCC(C)(C#Cc1ccc3c(c1)N(C(=O)C(F)(F)F)CCO3)O2 (racemic) [Example 45] | satisfied |
| COc1ccc(C#CC2(C)CCc3c(C)c(O)c(C)c(C)c3O2)cc1OC(C)=O (racemic) [Example 20] | satisfied |
| COc1cccc(C#CC2(C)CCc3c(C)c(O)c(C)c(C)c3O2)c1 (racemic) [Example 22] | not satisfied |
| COc1cccc(CCC2(C)CCc3c(C)c(O)c(C)c(C)c3O2)c1 (racemic) [Example 62] | not satisfied |
| Cc1c(C)c2c(c(C)c1O)CCC(C)(C#Cc1cccs1)O2 (racemic) [Example 4] | satisfied |
| Cc1c(C)c2c(c(C)c1O)CCC(C)(C#Cc1ccccc1O)O2 (racemic) [Example 50 (2-HO-phenyl)] | satisfied |
| Cc1c(C)c2c(c(C)c1O)CCC(C)(C#Cc1ccc(-c3ccccn3)s1)O2 (racemic) [Example 26] | not satisfied |
| Cc1c(C)c2c(c(C)c1O)CCC(C)(CCc1ccccc1)O2 (stereo not shown) [Example 56] | not satisfied |
| Cc1c(C)c2c(c(C)c1O)CCC(C)(C#Cc1cnc3ccccc3c1)O2 (racemic) [Example 33] | not satisfied |

----------
target: superoxide-dependent, iron-promoted lipid peroxidation of native rat heart cardiac lipid liposomes; assay: Lipid peroxidation inhibition (in vitro testing of antiperoxidative agents, ANTI-OX), hypoxanthine-xanthine oxidase-Fe3+.ADP, rat cardiac liposomes, MDA equivalents; settings: 60 min, 37° C., screened at 1.0 μM, IC50 determined if inhibition ≥ 50%, read-out: ANTI-OX IC-50

| compound | IC50 |
| --- | --- |
| COc1cc(C=O)cc(C#CC2(C)CCc3c(C)c(O)c(C)c(C)c3O2)c1O (racemic) [Example 28] | > 1 µM |
| COC(=O)c1cc(CCC2(C)CCc3c(C)c(O)c(C)c(C)c3O2)ccc1O (racemic) [Example 63] | > 1 µM |
| COc1ccc(C#CC2(C)CCc3c(C)c(O)c(C)c(C)c3O2)cc1OC(C)=O (racemic) [Example 20] | > 1 µM |
| Cc1c(C)c2c(c(C)c1O)CCC(C)(CCc1ccc(O)c(O)c1)O2 (racemic) [Example 61] | > 1 µM |
| COc1cc(C=NO)cc(C#CC2(C)CCc3c(C)c(O)c(C)c(C)c3O2)c1O (racemic) [Example 30] | > 1 µM |

----------
Reported pIC50 is given for each of the following molecules.
Target: superoxide-dependent, iron-promoted lipid peroxidation of native rat heart cardiac lipid liposomes
Test: Lipid peroxidation inhibition (in vitro testing of antiperoxidative agents, ANTI-OX), hypoxanthine-xanthine oxidase-Fe3+.ADP, rat cardiac liposomes, MDA equivalents
Conditions: 60 min, 37° C., screened at 1.0 μM, IC50 determined if inhibition ≥ 50%, read-out: ANTI-OX IC-50
Procedure: The test system employs hypoxanthine-xanthine oxidase (XO)-Fe^3+. ADP as the free radical generator and purified, native rat-heart membrane phosphoglyceride in Hepes-KCl buffer, pH 7.4, as the substrate. Inhibition of superoxide-dependent, iron-promoted lipid peroxidation in the linear reaction phase (after 1 hour of reaction) is measured as the net formation of thiobarbituric acid (TBA)-reactive material. […]
pIC50: −log10 of the molar value.
endpoint: pIC50

| molecule | censoring qualifier | experimental value |
| --- | --- | --- |
| Cc1c(C)c2c(c(C)c1O)CCC(C)(C#Cc1cccc3ccccc13)O2 (racemic) | < | 6.00 |
| CC(=O)Oc1cc(C#CC2(C)CCc3c(C)c(O)c(C)c(C)c3O2)ccc1OCc1ccccc1 (racemic) | = | 6.32 |
| COc1cccc(CCC2(C)CCc3c(C)c(O)c(C)c(C)c3O2)c1 (racemic) | < | 6.00 |
| COc1ccc(CCC2(C)CCc3c(C)c(O)c(C)c(C)c3O2)cc1OC(C)=O (racemic) | < | 6.00 |
| COC(=O)c1cc(C#CC2(C)CCc3c(C)c(O)c(C)c(C)c3O2)ccc1O (racemic) | = | 6.05 |
| CCCc1c(O)c(C(C)=O)cc2cc(C3(C)CCc4c(C)c(O)c(C)c(C)c4O3)oc12 (racemic) | = | 6.22 |

----------
Target: superoxide-dependent, iron-promoted lipid peroxidation of native rat heart cardiac lipid liposomes
Assay: Lipid peroxidation inhibition (in vitro testing of antiperoxidative agents, ANTI-OX), hypoxanthine-xanthine oxidase-Fe3+.ADP, rat cardiac liposomes, MDA equivalents
Conditions: 60 min, 37° C., screened at 1.0 μM, IC50 determined if inhibition ≥ 50%, read-out: ANTI-OX IC-50
Description: The test system employs hypoxanthine-xanthine oxidase (XO)-Fe^3+. ADP as the free radical generator and purified, native rat-heart membrane phosphoglyceride in Hepes-KCl buffer, pH 7.4, as the substrate. Inhibition of superoxide-dependent, iron-promoted lipid peroxidation in the linear reaction phase (after 1 hour of reaction) is measured as the net formation of thiobarbituric acid (TBA)-reactive material. […]
endpoint: IC50

| molecule | endpoint | experimental value |
| --- | --- | --- |
| Cc1c(C)c2c(c(C)c1O)CCC(C)(c1cc3ncccc3o1)O2 (racemic) | IC50 | 0.95 µM |
| Cc1c(C)c2c(c(C)c1O)CCC(C)(C#Cc1ccccc1N)O2 (racemic) | IC50 | > 1 µM |
| Cc1c(C)c2c(c(C)c1O)CC[C@@](C)(C#Cc1cccs1)O2 | IC50 | > 1 µM |
